# Tested on: HCC 2998
# procedureText: NCI tumour cell line growth inhibition, 48 h
Structures can show the parent of a compound that is named as a salt. The source made the active and inactive calls. No stated cut-off is given here; in the data, active = GI50 up to about 1.1 µM and inactive = higher. Starred links: 1 amine or outer side, 2 acyl side, 3 side chain; linkers in the order of their positions; H or OH if unused. Positions of bridges follow the written chain, without caps; N, C: chain ends. Non-standard residues stand in square brackets, D forms with d. Residues, ends and D or L forms follow the SMILES beside them. Chains are numbered I, II in the order given. Actinocin(9to1) = Cc1c2oc3c(C)ccc(C(=O)[*:1])c3nc-2c(C(=O)[*:2])c(N)c1=O; NMeF = CN[CH](Cc1ccccc1)C(=O)O; Sar = CNCC(=O)O
Classes used: t (active), f (inactive)

>>> cat("COC(=O)C(/C(=N/NC(N)=O)C(=O)Nc1ccc(C)cc1)c1nc2ccc([N+](=O)[O-])cc2nc1O (configuration not stated)")
"f"
>>> cat("C1=CC=C2NCCC/N=C3/C=CC=CC=C3NCCC/N=C\\2C=C1")
"f"
>>> cat("COc1cc(OC)c2c(O)c(S(=O)(=O)c3ccc(C)cc3)c(=O)oc2c1")
"f"
>>> cat("CC(=O)c1c(SCCN2CCCC2)n(-c2ccccc2)c(=S)n(-c2ccccc2)c1=O")
"f"
>>> cat("O=c1c2c(nc3[nH]ccn13)CCCC2")
"f"
>>> cat("C=Cc1c(C)c2cc3nc(c4c5[nH]c(cc6nc(cc1[nH]2)C(C)=C6CC)c(C)c5C(=O)C4C(=O)OC)C(CCC(=O)OC)C3C (configuration not stated)")
"f"
>>> cat("COc1ccc2[nH]c3c(c2c1)CC(=S)N1CCCC(CC3=O)C1 (configuration not stated)")
"f"
>>> cat("CNc1ccc(-c2nc3cc(C)ccc3o2)cc1")
"f"
>>> cat("CC1=C(c2ccccc2)CON(c2ccccc2)C1")
"f"
>>> cat("Cc1nc2c(c(=O)[nH]1)S/C(=C(/C#N)c1nc3ccccc3[nH]1)N2c1ccccc1")
"f"
>>> cat("CC(C)C(/C=C/c1ccc(Cl)cc1)=N\\NC(=S)NN")
"f"
>>> cat("CCOC(=O)C(Cl)(NC(=O)c1ccc(F)cc1)C(F)(F)F (configuration not stated)")
"f"
>>> cat("CNC(=O)NCCN1CC2CCC(CC2)C1")
"f"
>>> cat("Cc1c2oc3c(C)ccc(C(=O)NC4C(=O)NC(C(C)C)C(=O)N5CCCC5C(=O)N(C)CC(=O)N(C)C(Cc5ccccc5)C(=O)OC4C)c3nc-2c(C(=O)NC2C(=O)NC(C(C)C)C(=O)N3CCCC3C(=O)N(C)CC(=O)N(C)C(Cc3ccccc3)C(=O)OC2C)c(N)c1=O (configuration not stated) (I: TVP[Sar][NMeF] / II: TVP[Sar][NMeF]; ester I:1-I:C, II:1-II:C; linker I:N-II:N via Actinocin(9to1); configuration not given here)")
"t"
>>> cat("COc1ccc(C2=NN=C3C(c4ccccc4)=Nc4ccccc4N3C2)cc1")
"f"
>>> cat("CCCCCn1cc2c3c(cccc31)C1C=C(C)CN(C)[C@@H]1C2.Cc1ccc(C(=O)OC(C(=O)O)C(OC(=O)c2ccc(C)cc2)C(=O)O)cc1 (configuration not stated)")
"f"
>>> cat("CC12CC3OC(=O)C1COC14OC5(C2C1=O)C(O)(CCC1C4CC2OC24CC=CC(=O)C14C)C(=O)OC35C (configuration not stated)")
"f"
>>> cat("CC(C)=CCC/C(C)=C/CC/C(C)=C/CC/C(C)=C/CC/C(C)=C\\CC/C(C)=C/CC/C(C)=C/CC/C(C)=C/Cc1cc(O)ccc1O")
"f"
>>> cat("CN(C)c1ccc2nc(CC(O)(C(F)(F)F)C(F)(F)F)ccc2c1")
"f"
>>> cat("CSc1nc2c(ncn2C2OCC(O)C(O)C2O)c(=O)[nH]1 (configuration not stated)")
"f"
>>> cat("C[n+]1ccc2/c(=C\\C#N)c3ccccc3n21")
"f"
>>> cat("CN1CCC(CN2c3ccccc3Sc3ccccc32)C1 (configuration not stated) [METHDILAZINE HYDROCHLORIDE]")
"f"
>>> cat("Cc1cc2c(C)n(Cc3ccccc3Cl)nc2c(C(=O)O)c1C")
"f"
>>> cat("CN(C(=O)c1ccccc1)c1ccc2c(c1)C(=O)c1ccccc1C2=O")
"f"
>>> cat("CNC(=O)NCCN1N=C(C)/C(=C\\c2ccccc2)CC1=O")
"f"
>>> cat("Nc1ncnc2c1ncn2C1CC(OC2CCCCO2)C(CO)O1 (configuration not stated)")
"f"
>>> cat("O=C(Cc1ccccc1)NNc1nc(NNC(=O)c2ccncc2)nc(Nc2cccc(Cl)c2)n1")
"f"
>>> cat("CCOC(=O)C(CCN1CCC2(CC1)C(=O)N(C)CN2c1ccccc1)C(=O)OCC")
"f"
>>> cat("Cc1ccc(-c2cc(N)n(-c3nc4c(c(=O)n(C)c(=O)n4C)n3C)n2)cc1")
"f"
>>> cat("CC1CNC(NS(=O)(=O)c2cc(C(=O)Nc3ccccc3)c(Cl)cc2S)=NN1 (configuration not stated)")
"f"
>>> cat("O=C(NC1(C(=O)O)CCCC1)c1ccccc1")
"f"
>>> cat("CC(=O)C(C(c1ccccc1)N1CCOCC1)N1CCOCC1 (configuration not stated)")
"f"
>>> cat("COc1cc2cnc3c4ccccc4ccc3c2cc1OC")
"f"
>>> cat("COc1cc2c(c(O)c1OC)C(O)C1CCC(=O)N1C2c1ccc2c(c1)OCO2 (configuration not stated)")
"f"
>>> cat("CN[C@@H](C)[C@H](N)c1ccccc1")
"f"
>>> cat("C=[N+](CNC(=O)CNC(=O)C(Cc1ccc([N+](=O)[O-])cc1)NC(=O)OC(C)(C)C)C(=O)CNC(=O)C(Cc1ccc([N+](=O)[O-])cc1)NC(=O)OC(C)(C)C (configuration not stated)")
"f"
>>> cat("CCCCCCCCCCCCC1NC(=N)NC2(CCCO2)C1C(=O)OC (configuration not stated)")
"f"
